target: Ubiquitin carboxyl-terminal hydrolase 30 (Homo sapiens); assay: inhibitors of ubiquitin-specific protease 30 deubiquitylating enzyme, concentration dependence, in vitro biochemical, validation of primary hits (AID 1645865); conditions: purified USP30, Ub-rhodamine cleavage, fluorescence, 2 h
Active and inactive are the calls of the source.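 How the source made its calls: active means maximal inhibition of the USP30 enzyme reaching 30% or more across the dose series; inactive means the rest.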
Outcomes: y (active), n (inactive)

>  <compound>
COc1ccc(-c2nonc2NC(=O)C(c2ccccc2)c2ccccc2)cc1OC

>  <measurement target>
Ubiquitin carboxyl-terminal hydrolase 30 (Homo sapiens)

>  <group>
n

$$$$
>  <compound>
O=C(NCC1CC1)C1CCCN(c2ccc(-c3ccccc3)nn2)C1 (stereo not given)

>  <measurement target>
Ubiquitin carboxyl-terminal hydrolase 30 (Homo sapiens)

>  <group>
n

$$$$
>  <compound>
O=C(Nc1ccc2c(c1)OCCO2)c1ccc(N2CCCCC2)nn1

>  <measurement target>
Ubiquitin carboxyl-terminal hydrolase 30 (Homo sapiens)

>  <group>
n

$$$$
>  <compound>
CCOc1ccc2c(c1)c(=O)c(C(=O)c1ccccc1)cn2CC(=O)Nc1ccccc1

>  <measurement target>
Ubiquitin carboxyl-terminal hydrolase 30 (Homo sapiens)

>  <group>
y

$$$$
>  <compound>
CC(C)Cc1nc2sc3c(NCCN4CCOCC4)ncnc3c2c2c1CCC2

>  <measurement target>
Ubiquitin carboxyl-terminal hydrolase 30 (Homo sapiens)

>  <group>
n

$$$$
>  <compound>
Cc1ccc(C(=O)Nc2cc3c4c(c2)CC(=O)N4CCC3)cc1C

>  <measurement target>
Ubiquitin carboxyl-terminal hydrolase 30 (Homo sapiens)

>  <group>
n

$$$$
>  <compound>
O=C(c1cnccn1)N1CCc2[nH]c3ccc(F)cc3c2C1

>  <measurement target>
Ubiquitin carboxyl-terminal hydrolase 30 (Homo sapiens)

>  <group>
n

$$$$
>  <compound>
O=C1CC(c2ccco2)Cc2[nH]c(=O)c(-c3nc(-c4ccc(Cl)cc4)cs3)cc21 (stereo not given)

>  <measurement target>
Ubiquitin carboxyl-terminal hydrolase 30 (Homo sapiens)

>  <group>
n

$$$$
>  <compound>
O=C1C[C@@H]2O[C@H](CNC(=O)[C@@H]3CN(CCN3C(=O)C3CCOCC3)C(=O)[C@@H]3C[C@@H](CN3Cc3ccc(F)c(F)c3)N1)[C@@H](O)[C@H]2O

>  <measurement target>
Ubiquitin carboxyl-terminal hydrolase 30 (Homo sapiens)

>  <group>
n

$$$$
>  <compound>
Cc1cc(C(=O)Nc2ccc3c(c2)OCCO3)no1

>  <measurement target>
Ubiquitin carboxyl-terminal hydrolase 30 (Homo sapiens)

>  <group>
n

$$$$

====

biological target: Ubiquitin carboxyl-terminal hydrolase 30 (Homo sapiens) (UniProt Q70CQ3); assay: inhibitors of ubiquitin-specific protease 30 deubiquitylating enzyme, concentration dependence, in vitro biochemical, validation of primary hits (AID 1645865); settings: purified USP30, Ub-rhodamine cleavage, fluorescence, 2 h
Sequence (Q70CQ3 whole entry, looked up): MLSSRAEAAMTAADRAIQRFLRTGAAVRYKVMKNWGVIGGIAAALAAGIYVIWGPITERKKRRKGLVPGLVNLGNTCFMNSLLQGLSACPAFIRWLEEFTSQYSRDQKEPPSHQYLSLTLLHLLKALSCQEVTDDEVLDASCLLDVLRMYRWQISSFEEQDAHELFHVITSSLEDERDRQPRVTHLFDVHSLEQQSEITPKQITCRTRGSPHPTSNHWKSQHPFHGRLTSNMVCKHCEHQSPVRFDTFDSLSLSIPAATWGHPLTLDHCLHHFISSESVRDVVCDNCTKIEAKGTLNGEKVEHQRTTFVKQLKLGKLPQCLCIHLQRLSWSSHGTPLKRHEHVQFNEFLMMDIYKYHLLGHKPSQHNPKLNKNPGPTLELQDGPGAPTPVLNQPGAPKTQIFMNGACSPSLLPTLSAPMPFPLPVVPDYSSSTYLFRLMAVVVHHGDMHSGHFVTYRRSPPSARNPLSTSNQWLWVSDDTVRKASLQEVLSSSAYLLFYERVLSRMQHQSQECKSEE
Active and inactive are the calls of the source.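 The calls were made as follows: active = maximal inhibition of the USP30 enzyme reaching 30% or more across the dose series; inactive = the rest.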
Classes used: active, inactive

>  <compound>
O=C(CC1Oc2ccccc2NC1=O)Nc1ccccc1Br (stereo unspecified)

>  <measurement target>
Ubiquitin carboxyl-terminal hydrolase 30 (Homo sapiens) (UniProt Q70CQ3)

>  <group>
active

$$$$
>  <compound>
Cc1ccc(Cc2nc(-c3ccc(=O)[nH]c3)no2)cc1

>  <measurement target>
Ubiquitin carboxyl-terminal hydrolase 30 (Homo sapiens) (UniProt Q70CQ3)

>  <group>
inactive

$$$$
>  <compound>
CC1(C)CC(=O)C2=C(C1)Nc1ccccc1N(C(=O)C(F)(F)F)C2c1cccs1 (stereo unspecified)

>  <measurement target>
Ubiquitin carboxyl-terminal hydrolase 30 (Homo sapiens) (UniProt Q70CQ3)

>  <group>
inactive

$$$$
>  <compound>
CCC(C)c1ccc(O[C@@H]2O[C@@H]3COC(c4ccccc4)O[C@H]3[C@H](O)[C@H]2NC(C)=O)cc1 (stereo partly specified)

>  <measurement target>
Ubiquitin carboxyl-terminal hydrolase 30 (Homo sapiens) (UniProt Q70CQ3)

>  <group>
active

$$$$
>  <compound>
Fc1cnc(N2CC[C@H]3CO[C@H](CNc4ncccn4)[C@H]3C2)nc1

>  <measurement target>
Ubiquitin carboxyl-terminal hydrolase 30 (Homo sapiens) (UniProt Q70CQ3)

>  <group>
inactive

$$$$
>  <compound>
O=C(NCCCc1nc2ccccc2n1Cc1c(Cl)cccc1Cl)c1ccco1

>  <measurement target>
Ubiquitin carboxyl-terminal hydrolase 30 (Homo sapiens) (UniProt Q70CQ3)

>  <group>
active

$$$$
>  <compound>
CCN(CC)c1cc(C)c2cc(NC(=O)c3ccncc3)ccc2n1

>  <measurement target>
Ubiquitin carboxyl-terminal hydrolase 30 (Homo sapiens) (UniProt Q70CQ3)

>  <group>
inactive

$$$$
>  <compound>
CC(=O)N1Cc2ccccc2CC2(CCCN(CC3CCOCC3)C2)C1 (stereo unspecified)

>  <measurement target>
Ubiquitin carboxyl-terminal hydrolase 30 (Homo sapiens) (UniProt Q70CQ3)

>  <group>
inactive

$$$$
>  <compound>
Cc1ccc(CSC2=NS(=O)(=O)c3ccccc3N2)cc1

>  <measurement target>
Ubiquitin carboxyl-terminal hydrolase 30 (Homo sapiens) (UniProt Q70CQ3)

>  <group>
inactive

$$$$
>  <compound>
COc1ccc(NC(=O)C2CC(=O)Nc3c(-c4ccc(Cl)cc4)cnn32)c(OC)c1 (stereo unspecified)

>  <measurement target>
Ubiquitin carboxyl-terminal hydrolase 30 (Homo sapiens) (UniProt Q70CQ3)

>  <group>
active

$$$$
>  <compound>
Cc1ccc(-c2nc(-c3cccs3)cc(C(F)(F)F)c2C#N)cc1

>  <measurement target>
Ubiquitin carboxyl-terminal hydrolase 30 (Homo sapiens) (UniProt Q70CQ3)

>  <group>
inactive

$$$$
>  <compound>
COc1cc(OC)cc(C(=O)Nc2cnc(-c3ccccc3)nc2)c1

>  <measurement target>
Ubiquitin carboxyl-terminal hydrolase 30 (Homo sapiens) (UniProt Q70CQ3)

>  <group>
inactive

$$$$
>  <compound>
c1ccc(-c2nc(-c3nnn(-c4ccccc4)c3-c3ccncc3)no2)cc1

>  <measurement target>
Ubiquitin carboxyl-terminal hydrolase 30 (Homo sapiens) (UniProt Q70CQ3)

>  <group>
active

$$$$
>  <compound>
COc1ccccc1CC(=O)Nc1nc2ccccc2[nH]1

>  <measurement target>
Ubiquitin carboxyl-terminal hydrolase 30 (Homo sapiens) (UniProt Q70CQ3)

>  <group>
active

$$$$
>  <compound>
CCc1nc(SCC(=O)Nc2ccccc2Cl)c2oc3ccccc3c2n1

>  <measurement target>
Ubiquitin carboxyl-terminal hydrolase 30 (Homo sapiens) (UniProt Q70CQ3)

>  <group>
active

$$$$
>  <compound>
COC(=O)c1ccccc1NC(=O)CSc1nnc(-c2ccc(C(C)(C)C)cc2)n1C1CCCC1

>  <measurement target>
Ubiquitin carboxyl-terminal hydrolase 30 (Homo sapiens) (UniProt Q70CQ3)

>  <group>
active

$$$$
>  <compound>
COc1ccc(OC)c(NC(=O)CS(=O)(=O)c2cn(CC(=O)N3CCC(C)CC3)c3ccccc23)c1

>  <measurement target>
Ubiquitin carboxyl-terminal hydrolase 30 (Homo sapiens) (UniProt Q70CQ3)

>  <group>
active

$$$$
>  <compound>
COc1cccc(-n2ccc(=O)c(-c3nc(-c4ccccc4Cl)no3)n2)c1

>  <measurement target>
Ubiquitin carboxyl-terminal hydrolase 30 (Homo sapiens) (UniProt Q70CQ3)

>  <group>
inactive

$$$$
>  <compound>
COc1ccc(Cl)cc1NC(=O)Cn1c(=O)cc(C)c2c(C)nn(-c3ccccc3)c21

>  <measurement target>
Ubiquitin carboxyl-terminal hydrolase 30 (Homo sapiens) (UniProt Q70CQ3)

>  <group>
active

$$$$
>  <compound>
Cc1ccc(-c2noc(-c3nnc(SCC(=O)NC4CCCC4)n3C)n2)cc1

>  <measurement target>
Ubiquitin carboxyl-terminal hydrolase 30 (Homo sapiens) (UniProt Q70CQ3)

>  <group>
active

$$$$
>  <compound>
COc1ccc(CNC(=O)c2ccccc2N2C(=O)N3CCc4c([nH]c5ccccc45)[C@@]3(C)C2=O)cc1

>  <measurement target>
Ubiquitin carboxyl-terminal hydrolase 30 (Homo sapiens) (UniProt Q70CQ3)

>  <group>
active

$$$$
